src = PubChem BioAssay

# reported viability; entries follow
assay: SK-BR-3 cell growth inhibitors, pilot screen, 24 h, human (AID 572); conditions: SK-BR-3 viability, CellTiter-Glo luminescence, at 10 µM, stronger effect = lower value;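 further: compound exposure lasted between 18 and 24 h rather than exactly 24 h; 100% = carrier-treated control wells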
Express the result in % but write the number alone.

Exam item: Form field: reported viability of CN(C)CCCN1C(=O)c2oc3ccccc3c(=O)c2C1c1cccs1 (stereo not drawn)
Marked response: 110

----------
assay: growth inhibitors of H69AR lung tumor, primary screen, human, duplicate replicates (AID 580); conditions: H69AR lung tumor cells viability, ATP luminescence, 72 h; at 10 µM; stronger effect = lower value;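 further: 100% = mean luminescence of untreated wells and 0% = no signal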
assay_readout: viability (%)
Number in %, nothing else.

Exam item: Please report the recorded viability for CN1C(=O)C(CC(=O)N2CCN(C(c3ccccc3)c3ccccc3)CC2)N(C)C1=O (stereo unspecified) .
Marked response: 81.9

Exam item: Item: `O=c1c2c(nc3nc(CCc4ccccc4)[nH]n13)CCC2`
Marked response: 91

Exam item: And for OC(CCN1CCOCC1)(c1ccc(Cl)cc1)C1CCCCC1 (stereo unspecified) ?
Marked response: 82

Exam item: // query: `CCCn1c(SCC(=O)N2CCCc3ccccc32)nnc1-c1ccccn1`
Marked response: 95.1

Exam item: Please give the result for `NC(=O)c1c(NC(=O)CN2CCCC2)sc2c1CCCC2` too.
Marked response: 91.3

Exam item: Could you do the same for `COc1ccc(OC)c(CNC(=O)COc2cc(=O)n(C)c3ccccc23)c1` , please?
Marked response: 88

Exam item: Similarly, `CCn1cc(C(=O)N2CCCC2)c(=O)c2cc(S(=O)(=O)N3CCOCC3)ccc21` ?
Marked response: 99.5

Exam item: And what about the molecule O=C(NCCCN1CCCC1=O)c1ccc2c(c1)NC(=O)C(N1CCOCC1)S2 (stereo unspecified) ?
Marked response: 89.5

Exam item: What do you get for COCC(C)NC(=O)NC(=O)c1ccc(Cl)cc1 (stereo unspecified) ?
Marked response: 98.7

Exam item: Quick one: `CCOC(=O)CSc1ncnc2c1cnn2-c1ccc(C)cc1`
Marked response: 90.6

Exam item: Entry to check: `CC(=O)N1CCN(C(C)=O)C1c1ccccc1`
Marked response: 91.4

Exam item: Check CSCSC1=C(C#N)C(c2ccc(Cl)cc2)C(C(C)=O)=C(C)N1 (stereo unspecified) too.
Marked response: 75.2

Exam item: Could you do the same for `COc1ccccc1OCCCCNCCO` , please?
Marked response: 101

Exam item: What do we get for CC1(CC(=O)O)C(=O)N=C2C=CC=CN21 (stereo unspecified) ?
Marked response: 89.4

Exam item: `Cn1c(=O)c2c(nc(NCc3ccccc3)n2CCCc2ccccc2)n(C)c1=O` , same question.
Marked response: 83.4

Exam item: Then what about the molecule `COc1ccc(Cl)cc1Nc1nc(C)cc(=O)[nH]1` ?
Marked response: 95.8

Exam item: Same again, this time with CC1=C(n2nnc3ccccc32)C(c2ccccc2)C(C#N)=C(N)O1 (stereo unspecified)
Marked response: 83.8

Exam item: And then `O=C1CCCC(O)=C1C=Nc1ccc2c(c1)oc1ccccc12` , what is it?
Marked response: 88.7

Exam item: Could you do the same for Cc1ccc(C(c2sc3nc(C)nn3c2O)N2CC(C)OC(C)C2)cc1 (stereo unspecified) , please?
Marked response: 101

----------
assay: reversal of MRP1-mediated doxorubicin resistance, pilot screen, H69AR cells, doxorubicin co-treatment (AID 601); details: H69AR cells, CellTiter-Glo, 72 h; compound alone cytotoxicity; at 10 µM
Threshold 80%: viability strictly smaller gives TRUE, otherwise FALSE.

See these solved cases before continuing.
O=C(Nc1ccc2c(c1)OCO2)c1nn(-c2ccccc2)c(=O)c2ccccc12    TRUE
C=C(C)Cn1c(N2CCN(CC)CC2)nc2c1c(=O)[nH]c(=O)n2C    FALSE

Exam item: is_below(viability, 80%) for `Cc1ccc(-c2noc(CCC(=O)NCC3CCN(Cc4cccc(C)c4)CC3)n2)cc1` ?
Marked response: FALSE

Exam item: Can you check `Cn1c2c(c(=O)n(C)c1=O)CN(CCCN1CCOCC1)CN2` next?
Marked response: FALSE

Exam item: Now the same for O=C(c1ccc(Cl)cc1)N1CCCCC(Sc2nnc(-c3ccc4c(c3)OCO4)o2)C1=O (stereo not given)
Marked response: FALSE

----------
test: growth suppression of yeast trafficking mutant, preliminary HTS, modulators of trafficking downstream of Golgi apparatus project, 1536-format plate, OD 615 nm (AID 637); conditions: yeast transport mutant growth, absorbance 615 nm, 18 h; stronger effect = higher value
The source made the active and inactive calls. Rule as the data show it: active = inhibition above about 30%; inactive = the rest.
A collection of molecules and their measured inhibition

O=C(CCn1c(=S)[nH]c2cc3c(cc2c1=O)OCO3)N1CCN(C2CCCCC2)CC1    -0.66% (inactive)
CN=Cc1cc(-c2ccccc2)sc1O    32.7% (active)
Cc1ccc(C(=O)N2CCCC(c3nc4c(nnn4Cc4ccccc4)c(=O)[nH]3)C2)cc1 (configuration not stated)    7.33% (inactive)
CC1(C)CC(=O)C(C=Nc2ccc3c(c2)OCO3)=C(O)C1    -4.33% (inactive)
Cc1ncoc1C(=O)Nc1cccc(Cl)c1C    0.33% (inactive)

Exam item: # inhibition lookup, item `CN1CCc2nc(SCC(=O)Nc3ccc(F)cc3)c(C#N)cc2C1`
Marked response: 4.1% (inactive)

Exam item: Param item: `CCn1c(Cc2ccc(OC)cc2)nnc1SCC(=O)Nc1cccc(C(=O)OC)c1`
Marked response: -2.86% (inactive)

Exam item: Now consider `O=S(=O)(NCc1ccccc1)c1ccc2c(c1)OCCO2` .
Marked response: -2.7% (inactive)

Exam item: Proceed to COc1ccc(-c2cc(C(F)F)n3ncc(C(=O)NCC4CCCO4)c3n2)cc1 (configuration not stated)
Marked response: 4.35% (inactive)

Exam item: Further, for `Cc1nn(-c2ccccc2)c(C)c1/C=N/O` ?
Marked response: 3.93% (inactive)

Exam item: Same question, `COc1cc(C)nc(NS(=O)(=O)c2ccc(C)cc2)n1` this time
Marked response: 0.65% (inactive)

Exam item: Another molecule to look at: `O=C(CSc1nnc(-c2ccncc2)n1-c1ccc(F)cc1)NC(=O)NCc1ccco1`
Marked response: -3.97% (inactive)

Exam item: Moving on to `CC(C)NC(=O)CSCc1ccccc1Cl`
Marked response: 0.97% (inactive)

Exam item: Thanks! And O=C1c2oc3ccccc3c(=O)c2C(c2ccccn2)N1Cc1ccccc1 (configuration not stated) ?
Marked response: -8.87% (inactive)

Exam item: Next up: `Cc1nc2ccccc2c(=O)n1/N=C/c1ccncc1`
Marked response: -1.94% (inactive)

Exam item: Field entry: Cc1nc2sc(C(c3ccccc3)N3CCN(c4ccccc4F)CC3)c(O)n2n1 (configuration not stated)
Marked response: -7.7% (inactive)

Exam item: // next record `COc1ccc(S(=O)(=O)CCC(=O)O)cc1`
Marked response: 2.54% (inactive)

Exam item: Then `O=C(c1ccco1)N1CCN(C(=O)c2cc3c(s2)-c2ccccc2OC3)CC1` ?
Marked response: -1.64% (inactive)

Exam item: Next entry: `CCc1ccc2nc(NC(=O)CSCc3c(C)noc3C)sc2c1`
Marked response: -7.54% (inactive)

Exam item: Let us now turn to CCCn1c(NC(=O)C2COc3ccccc3O2)nc2ccccc21 (configuration not stated)
Marked response: 5.74% (inactive)

Exam item: Same read-out for `CCN(CC(=O)Nc1ccc(S(N)(=O)=O)cc1)S(=O)(=O)c1cc(C)ccc1OC` ?
Marked response: -1.67% (inactive)

Exam item: Subsequent entry: `Cc1ccc(-c2nn3c(=O)c(C)nnc3s2)cc1`
Marked response: -5% (inactive)

----------
assay: HUVEC growth inhibition – cell-based, human, primary screen (AID 575); conditions: HUVEC proliferation, CellTiter-Glo luminescence, 72 h; at 10 µM; stronger effect = lower value;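 further: 100% = median of untreated cell wells with 0.1% DMSO on each plate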
Criterion: viability strictly under 90%. Met: rule met. Not met: rule not met.

Worked examples follow.
N#CC1=C(N)OC(c2ccccc2)=C(C#N)C1c1ccc2c(c1)OCO2 (stereo unspecified)    rule met
CCN(CCNC(=O)C1CCN(S(=O)(=O)CC)CC1)c1ccccc1    rule not met
CCSc1ccccc1C(=O)Nc1cccc(OC)c1    rule not met
COc1ccc(OC)c(NC(=O)C2CCN(c3cc(-c4ccccc4)nc4ncnn34)CC2)c1    rule met

Exam item: Consider the compound `O=C(c1ccco1)N1CCN(C(=O)C2CCN(S(=O)(=O)c3cccc4nsnc34)CC2)CC1` . Is its viability strictly less than 90%?
Marked response: rule not met

Exam item: Follow-up entry: O=S(=O)(NCC1CCCO1)c1cc(Cl)ccc1Br (stereo unspecified)
Marked response: rule not met

Exam item: Also check CCOc1ccc(CN2C(=O)c3ccccc3C2C(=O)NCc2cccnc2)cc1 (stereo unspecified)
Marked response: rule met

Exam item: How about `O=C(CSc1ncnc2c1oc1ccccc12)NCc1ccco1` ?
Marked response: rule met

Exam item: Would you kindly repeat that for `CC1(C)CC(=O)c2cc(OCC(=O)NCCCN3CCN(c4ccccc4F)CC3)ccc2O1` ?
Marked response: rule met

Exam item: Also COc1ccc(-n2c(Cc3cccn3C)nnc2SCC(=O)NCC2CCCO2)cc1 (stereo unspecified) ?
Marked response: rule not met

Exam item: Also `COC(=O)CCn1nnc(-c2cccs2)n1` ?
Marked response: rule not met
